// reported Kd per item
# subject_of_test: T1, EsCas13d, nuclease-dead (Eubacterium siraeum, UniProt B0MS50, R295A;H300A;R849A;H854A)
# T1 sequence: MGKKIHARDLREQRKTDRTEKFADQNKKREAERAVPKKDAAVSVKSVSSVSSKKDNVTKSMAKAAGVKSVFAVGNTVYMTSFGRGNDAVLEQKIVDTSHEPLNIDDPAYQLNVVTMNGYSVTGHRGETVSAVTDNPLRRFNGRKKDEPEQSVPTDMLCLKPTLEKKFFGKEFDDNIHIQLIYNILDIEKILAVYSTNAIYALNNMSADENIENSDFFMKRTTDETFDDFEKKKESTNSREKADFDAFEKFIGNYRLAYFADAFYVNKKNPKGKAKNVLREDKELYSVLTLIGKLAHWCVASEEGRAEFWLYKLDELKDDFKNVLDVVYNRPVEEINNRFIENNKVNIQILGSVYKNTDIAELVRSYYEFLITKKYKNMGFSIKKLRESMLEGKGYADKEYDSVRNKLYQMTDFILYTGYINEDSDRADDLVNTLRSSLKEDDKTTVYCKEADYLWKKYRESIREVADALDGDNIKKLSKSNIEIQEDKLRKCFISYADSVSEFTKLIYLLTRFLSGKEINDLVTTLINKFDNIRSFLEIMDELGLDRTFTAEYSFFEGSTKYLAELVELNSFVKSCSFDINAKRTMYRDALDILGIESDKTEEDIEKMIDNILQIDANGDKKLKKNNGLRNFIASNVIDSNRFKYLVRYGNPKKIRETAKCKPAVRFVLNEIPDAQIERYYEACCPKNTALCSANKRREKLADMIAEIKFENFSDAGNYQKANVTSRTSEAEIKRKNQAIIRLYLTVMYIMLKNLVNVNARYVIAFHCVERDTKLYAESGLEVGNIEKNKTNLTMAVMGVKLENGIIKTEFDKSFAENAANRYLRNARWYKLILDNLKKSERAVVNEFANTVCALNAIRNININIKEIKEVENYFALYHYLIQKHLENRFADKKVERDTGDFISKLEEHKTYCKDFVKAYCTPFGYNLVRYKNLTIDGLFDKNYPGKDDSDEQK
# protocol_text: crRNA (strand 1, pre-loaded); Mg2+; 40 mM Tris-HCl pH 7.5, 150 mM NaCl, 6 mM MgCl2, 1 mM DTT, 0.1% Tween-20, 0.2 mg/ml BSA; 25 C; 10 min per concentration, then washed
# test_parameters: tags: His6-TwinStrep-SUMO cleaved; N-terminal SNAP kept (SNAP-Surface 488); label: 3' end held by stalled T7 RNA polymerase

target 2 MT 5'PFS ACU 3'PFS CGG (mixed) RNA 1: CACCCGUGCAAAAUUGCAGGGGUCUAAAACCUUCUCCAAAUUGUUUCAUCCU RNA 2: GGGAAUGGAUCCACAUCUACGAAUUCACUAGGAUGAAACAAUUUGGAGAAGCGGAGAUCGGAAGAGCACACGU :: 3.47 nM

Okay, now this binder:
Suppose we examine the binder target 2 MT 5'PFS CGU 3'PFS ACU (mixed) RNA 1: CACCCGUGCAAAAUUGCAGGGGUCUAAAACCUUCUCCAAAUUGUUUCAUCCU RNA 2: GGGAAUGGAUCCACAUCUACGAAUUCCGUAGGAUGAAACAAUUUGGAGAAGACUAGAUCGGAAGAGCACACGU ; what Kd value has been reported?
23 nM
